- method-notes: Ocular distribution of CDO in rats, single dose topical ocular vs. oral
- Type: in vivo, Sprague Dawley (SD) rat
- condition-parameters: Sprague-Dawley, plasma; rat, topical eye 10 mg/ml (eye drop of 10 μl) = 0.1 mg, 0.25 h; read-out: CDO concentrations Plasma
- Experimental: In Sprague Dawley (SD) rat, weighing approximately 200 g, CDO was administered by topical ocular instillation (10 μl/eye) at 10 mg/ml (composition 2 of Example 1), at 100 mg/ml (composition 5 of Example 1) or by oral gavage at 50 mg/kg, at 200 mg/kg or at 750 mg/kg in aqueous solution (from compositions 1, 3 and 4, respectively, of Example 1). […] Bioanalysis of CDO was performed depending on the type of matrix. […] After centrifugation, samples were analyzed by UPLC-MS/MS. […]
measurement-label: concentration at 0.25 h (ng/g)
The reply should be a number in ng/g, with the unit left off.

The value of concentration at 0.25 h measured for the molecule O=S(=O)(O)c1cc(O)ccc1O [CDO, Calcium dobesilate monohydrate] turned out to be 10
